- System: HCC-44
- method-notes: relative viability (nuclei count vs DMSO), 5 days (fraction); higher = more cells survive
- run-conditions: first compound 0.8 µM
Some compounds, each annotated with its measured relative viability.
measured-property: relative viability

compound	test-value
C=C1C(=O)O[C@@H](CCCCCCCC)[C@@H]1C(=O)O [C-75] + CC(=O)Nc1cccc(-n2c(=O)n(C3CC3)c(=O)c3c(Nc4ccc(I)cc4F)n(C)c(=O)c(C)c32)c1 [Trametinib] (partner 0.02 µM)	0.964
C=C1C(=O)O[C@@H](CCCCCCCC)[C@@H]1C(=O)O [C-75] + Cc1nc(NC(=O)N2CCC[C@H]2C(N)=O)sc1-c1ccnc(C(C)(C)C(F)(F)F)c1 [Alpelisib] (partner 2 µM)	0.719
C=C1C(=O)O[C@@H](CCCCCCCC)[C@@H]1C(=O)O [C-75] + O=C(c1cc(Cc2n[nH]c(=O)c3ccccc23)ccc1F)N1CCN(C(=O)C2CC2)CC1 [Olaparib] (partner 8 µM)	0.962
C=C1C(=O)O[C@@H](CCCCCCCC)[C@@H]1C(=O)O [C-75] + C[C@]1(O)C[C@@H](c2nc(-c3ccc4ccc(-c5ccccc5)nc4c3)c3c(N)nccn32)C1 [Linsitinib] (partner 1 µM)	0.618
Oc1nc(-c2ccc(C(F)(F)F)cc2)nc2c1CSCC2 [XAV939] + NC(=O)Nc1cc(-c2cccc(F)c2)sc1C(=O)N[C@H]1CCCNC1 [AZD7762] (partner 0.2 µM)	0.953

* * *

Some compounds, each annotated with its measured relative viability.
- Test system: NCI-H596
- method-notes: relative viability (nuclei count vs DMSO), 5 days (fraction); higher = more cells survive
- run-conditions: first compound 0.5 µM

compound	relative viability
CC1(C)CCC(c2ccc(Cl)cc2)=C(CN2CCN(c3ccc(C(=O)NS(=O)(=O)c4ccc(N[C@H](CCN5CCOCC5)CSc5ccccc5)c(S(=O)(=O)C(F)(F)F)c4)cc3)CC2)C1 [Navitoclax] + Nc1ncn([C@H]2C[C@H](O)[C@@H](CO)O2)c(=O)n1 [Decitabine] (partner 2 µM)	1.01
CC1(C)CCC(c2ccc(Cl)cc2)=C(CN2CCN(c3ccc(C(=O)NS(=O)(=O)c4ccc(N[C@H](CCN5CCOCC5)CSc5ccccc5)c(S(=O)(=O)C(F)(F)F)c4)cc3)CC2)C1 [Navitoclax] + Cc1nc(Nc2ncc(C(=O)Nc3c(C)cccc3Cl)s2)cc(N2CCN(CCO)CC2)n1 [Dasatinib] (partner 0.075 µM)	0.438
CC1(C)CCC(c2ccc(Cl)cc2)=C(CN2CCN(c3ccc(C(=O)NS(=O)(=O)c4ccc(N[C@H](CCN5CCOCC5)CSc5ccccc5)c(S(=O)(=O)C(F)(F)F)c4)cc3)CC2)C1 [Navitoclax] + CC(=O)Nc1cccc(-n2c(=O)n(C3CC3)c(=O)c3c(Nc4ccc(I)cc4F)n(C)c(=O)c(C)c32)c1 [Trametinib] (partner 0.02 µM)	0.776
CC1(C)CCC(c2ccc(Cl)cc2)=C(CN2CCN(c3ccc(C(=O)NS(=O)(=O)c4ccc(N[C@H](CCN5CCOCC5)CSc5ccccc5)c(S(=O)(=O)C(F)(F)F)c4)cc3)CC2)C1 [Navitoclax] + Cc1cc(Nc2cc(N3CCN(C)CC3)nc(Sc3ccc(NC(=O)C4CC4)cc3)n2)n[nH]1 [Tozasertib] (partner 0.1 µM)	1.03
CC1(C)CCC(c2ccc(Cl)cc2)=C(CN2CCN(c3ccc(C(=O)NS(=O)(=O)c4ccc(N[C@H](CCN5CCOCC5)CSc5ccccc5)c(S(=O)(=O)C(F)(F)F)c4)cc3)CC2)C1 [Navitoclax] + NC(=O)Nc1cc(-c2cccc(F)c2)sc1C(=O)N[C@H]1CCCNC1 [AZD7762] (partner 0.2 µM)	1.05
CC1(C)CCC(c2ccc(Cl)cc2)=C(CN2CCN(c3ccc(C(=O)NS(=O)(=O)c4ccc(N[C@H](CCN5CCOCC5)CSc5ccccc5)c(S(=O)(=O)C(F)(F)F)c4)cc3)CC2)C1 [Navitoclax] + O=C(c1cc(Cc2n[nH]c(=O)c3ccccc23)ccc1F)N1CCN(C(=O)C2CC2)CC1 [Olaparib] (partner 8 µM)	0.626
CC1(C)CCC(c2ccc(Cl)cc2)=C(CN2CCN(c3ccc(C(=O)NS(=O)(=O)c4ccc(N[C@H](CCN5CCOCC5)CSc5ccccc5)c(S(=O)(=O)C(F)(F)F)c4)cc3)CC2)C1 [Navitoclax] + CS(=O)(=O)CCNCc1ccc(-c2ccc3ncnc(Nc4ccc(OCc5cccc(F)c5)c(Cl)c4)c3c2)o1 [Lapatinib] (partner 2 µM)	1.06

* * *

- Tested on: NCI-H1915
- method-notes: relative viability (nuclei count vs DMSO), 5 days (fraction); higher = more cells survive
- run-conditions: first compound 0.5 µM

compound	relative viability
CC1(C)CCC(c2ccc(Cl)cc2)=C(CN2CCN(c3ccc(C(=O)NS(=O)(=O)c4ccc(N[C@H](CCN5CCOCC5)CSc5ccccc5)c(S(=O)(=O)C(F)(F)F)c4)cc3)CC2)C1 [Navitoclax] + C[C@]1(O)C[C@@H](c2nc(-c3ccc4ccc(-c5ccccc5)nc4c3)c3c(N)nccn32)C1 [Linsitinib] (partner 1 µM)	1.06
CC1(C)CCC(c2ccc(Cl)cc2)=C(CN2CCN(c3ccc(C(=O)NS(=O)(=O)c4ccc(N[C@H](CCN5CCOCC5)CSc5ccccc5)c(S(=O)(=O)C(F)(F)F)c4)cc3)CC2)C1 [Navitoclax] + Cc1nc(Nc2ncc(C(=O)Nc3c(C)cccc3Cl)s2)cc(N2CCN(CCO)CC2)n1 [Dasatinib] (partner 0.075 µM)	0.354
CC1(C)CCC(c2ccc(Cl)cc2)=C(CN2CCN(c3ccc(C(=O)NS(=O)(=O)c4ccc(N[C@H](CCN5CCOCC5)CSc5ccccc5)c(S(=O)(=O)C(F)(F)F)c4)cc3)CC2)C1 [Navitoclax] + O=C(CCCCCCC(=O)Nc1ccccc1)NO [Vorinostat] (partner 1 µM)	0.424
CC1(C)CCC(c2ccc(Cl)cc2)=C(CN2CCN(c3ccc(C(=O)NS(=O)(=O)c4ccc(N[C@H](CCN5CCOCC5)CSc5ccccc5)c(S(=O)(=O)C(F)(F)F)c4)cc3)CC2)C1 [Navitoclax] + CC(=O)c1c(C)c2cnc(Nc3ccc(N4CCNCC4)cn3)nc2n(C2CCCC2)c1=O [Palbociclib] (partner 0.5 µM)	0.509
CC1(C)CCC(c2ccc(Cl)cc2)=C(CN2CCN(c3ccc(C(=O)NS(=O)(=O)c4ccc(N[C@H](CCN5CCOCC5)CSc5ccccc5)c(S(=O)(=O)C(F)(F)F)c4)cc3)CC2)C1 [Navitoclax] + CCNC(=O)c1noc(-c2cc(C(C)C)c(O)cc2O)c1-c1ccc(CN2CCOCC2)cc1 [Luminespib] (partner 0.01 µM)	0.829

* * *

- System: NCI-H661
- method-notes: relative viability (nuclei count vs DMSO), 5 days (fraction); higher = more cells survive
- run-conditions: first compound 0.8 µM
Some compounds, each annotated with its measured relative viability.

compound	relative viability
C=C1C(=O)O[C@@H](CCCCCCCC)[C@@H]1C(=O)O [C-75] + N=C(N)NC(=N)NCCc1ccccc1 [Phenformin] (partner 250 µM)	0.296
C=C1C(=O)O[C@@H](CCCCCCCC)[C@@H]1C(=O)O [C-75] + Cc1nc(Nc2ncc(C(=O)Nc3c(C)cccc3Cl)s2)cc(N2CCN(CCO)CC2)n1 [Dasatinib] (partner 0.075 µM)	0.857
Oc1nc(-c2ccc(C(F)(F)F)cc2)nc2c1CSCC2 [XAV939] + CCNC(=O)c1noc(-c2cc(C(C)C)c(O)cc2O)c1-c1ccc(CN2CCOCC2)cc1 [Luminespib] (partner 0.01 µM)	0.913

* * *

- Test system: NCI-H2087
- method-notes: relative viability (nuclei count vs DMSO), 5 days (fraction); higher = more cells survive
- run-conditions: first compound 0.03162 µM

compound	system	relative viability
NC(=O)Nc1cc(-c2cccc(F)c2)sc1C(=O)N[C@H]1CCCNC1 [AZD7762] + CC(=O)Nc1cccc(-n2c(=O)n(C3CC3)c(=O)c3c(Nc4ccc(I)cc4F)n(C)c(=O)c(C)c32)c1 [Trametinib] (partner 0.02 µM)	NCI-H2087	0.212
NC(=O)Nc1cc(-c2cccc(F)c2)sc1C(=O)N[C@H]1CCCNC1 [AZD7762] + Nc1nc2[nH]cc(CCc3ccc(C(=O)N[C@@H](CCC(=O)O)C(=O)O)cc3)c2c(=O)[nH]1 [Pemetrexed] (partner 0.2 µM)	NCI-H2087	0.654
NC(=O)Nc1cc(-c2cccc(F)c2)sc1C(=O)N[C@H]1CCCNC1 [AZD7762] + Nc1ncn([C@H]2C[C@H](O)[C@@H](CO)O2)c(=O)n1 [Decitabine] (partner 2 µM)	NCI-H2087	0.378

* * *

Some compounds, each annotated with its measured relative viability.
- Test system: PC-14
- method-notes: relative viability (nuclei count vs DMSO), 5 days (fraction); higher = more cells survive
- run-conditions: first compound 0.08 µM

compound	relative viability
C=C1C(=O)O[C@@H](CCCCCCCC)[C@@H]1C(=O)O [C-75] + CS(=O)(=O)N1CCN(Cc2cc3nc(-c4cccc5[nH]ncc45)nc(N4CCOCC4)c3s2)CC1 [Pictilisib] (partner 1 µM)	0.748
C=C1C(=O)O[C@@H](CCCCCCCC)[C@@H]1C(=O)O [C-75] + Cc1cc(Nc2cc(N3CCN(C)CC3)nc(Sc3ccc(NC(=O)C4CC4)cc3)n2)n[nH]1 [Tozasertib] (partner 0.1 µM)	0.597
C=C1C(=O)O[C@@H](CCCCCCCC)[C@@H]1C(=O)O [C-75] + Cc1nc(Nc2ncc(C(=O)Nc3c(C)cccc3Cl)s2)cc(N2CCN(CCO)CC2)n1 [Dasatinib] (partner 0.075 µM)	0.292
Oc1nc(-c2ccc(C(F)(F)F)cc2)nc2c1CSCC2 [XAV939] + CS(=O)(=O)CCNCc1ccc(-c2ccc3ncnc(Nc4ccc(OCc5cccc(F)c5)c(Cl)c4)c3c2)o1 [Lapatinib] (partner 2 µM)	0.301
Oc1nc(-c2ccc(C(F)(F)F)cc2)nc2c1CSCC2 [XAV939] + Cc1cc(Nc2cc(N3CCN(C)CC3)nc(Sc3ccc(NC(=O)C4CC4)cc3)n2)n[nH]1 [Tozasertib] (partner 0.1 µM)	0.673
Oc1nc(-c2ccc(C(F)(F)F)cc2)nc2c1CSCC2 [XAV939] + CS(=O)(=O)N1CCN(Cc2cc3nc(-c4cccc5[nH]ncc45)nc(N4CCOCC4)c3s2)CC1 [Pictilisib] (partner 1 µM)	0.859

Values were extracted from the supplement of paper PMC10307832.
